Test system: cGAS activity in THP1 cells (IFNb as marker)
test_description: Cellular assay to measure cGAS activity (IFNb production in PMA-differentiated THP1 cells stimulated by RDG-Adenovirus-GFP)
Type: cell-based, human
condition_parameters: Homo sapiens, THP-1, THP1 cells, PMA differentiated, RDG-Adenovirus-GFP 1000 MOI, IFNb AlphaLISA, overnight incubation; read-out: IC50 (μM), Cellular assay for Compounds 95-348
Could you mark each record class 1 if its IC50 falls strictly under 1 µM, and class 0 if it equals or exceeds it?

Example results:
- compound: "NC(=O)CCC(=O)N1CCn2c(c(-c3cn[nH]c3)c3ccc(Cl)c(Cl)c32)C1"
  category_label: "class 0"
- compound: "F[C@H]1C[C@@H](Oc2cc(Cl)c(Cl)c3[nH]cc(-c4cn[nH]c4)c23)C1"
  category_label: "class 0"
- compound: "N#CCNc1cc(Cl)c(Cl)c2c1c(-c1cn[nH]c1)c1n2CCNC1=O"
  category_label: "class 0"
- compound: "N#CCOc1cc(Cl)c(Cl)c2c1c(-c1cn[nH]c1)c1n2CCN(C(=O)c2nccnc2C(=O)N2CCCCC2)C1"
  category_label: "class 0"
- compound: "OCCCNc1cc(Cl)c(Cl)c2[nH]nc(-c3cn[nH]c3)c12"
  category_label: "class 1"

(Q) Hello, I'm reviewing records and need to know if IC50 of FC(F)CNc1cc(Cl)c(Cl)c2[nH]cc(-c3cn[nH]c3)c12 is below 1 µM. Could you check?
(A) class 1

(Q) Hello, I'm reviewing records and need to know if IC50 of O=C(Nc1cc(Cl)c(Cl)c2c1c(-c1cn[nH]c1)c1n2CCN(C(=O)CN2CCOC2=O)C1)C(F)F is below 1 µM. Could you check?
(A) class 0

(Q) Hello, I'm reviewing records and need to know if IC50 of N#CCOc1cc(Cl)c(Cl)c2c1c(-c1cn[nH]c1)cn2-c1cn(CCO)nn1 is below 1 µM. Could you check?
(A) class 0

(Q) Hello, I'm reviewing records and need to know if IC50 of CC(=O)Nc1cc(Cl)cc2c1c(-c1cn[nH]c1)cn2-c1cn(CCO)nn1 is below 1 µM. Could you check?
(A) class 0

(Q) Hello, I'm reviewing records and need to know if IC50 of N#CCOc1cc(Cl)c(Cl)c2c1c(-c1cn[nH]c1)c1n2CCN(C(=O)CN2CCOC2=O)C1 is below 1 µM. Could you check?
(A) class 0

(Q) Hello, I'm reviewing records and need to know if IC50 of FC(F)COc1cc(Cl)c(Cl)c2[nH]cc(-c3cn[nH]c3)c12 is below 1 µM. Could you check?
(A) class 0

(Q) Hello, I'm reviewing records and need to know if IC50 of NC(=O)NCc1[nH]c2c(Cl)c(Cl)ccc2c1-c1cn[nH]c1 is below 1 µM. Could you check?
(A) class 0

(Q) Hello, I'm reviewing records and need to know if IC50 of O=C(CO)NCc1[nH]c2c(Cl)c(Cl)cc(NC(=O)CO)c2c1-c1cn[nH]c1 is below 1 µM. Could you check?
(A) class 0

(Q) Hello, I'm reviewing records and need to know if IC50 of CC(=O)NC1CCc2c(-c3cn[nH]c3)c3c(OCC#N)cc(Cl)c(Cl)c3n2C1 (centres unmarked) is below 1 µM. Could you check?
(A) class 0

* * *

Documented IC50 across a set of molecules
target_desc: recombinant human cGAS (Homo sapiens (Human))
test_description: In vitro inhibition assay of cGAS activity (cGAMP production, RapidFire mass spectrometry)
Format: biochemical
condition_parameters: 10 nM recombinant human cGAS, 60 nM 75-bp dsDNA, ATP, GTP, room temperature 3 hours, read-out: IC50 (μM), In vitro inhibition assay for Compounds 95-348
# value in µM; strip the unit string

Field: example entries. Status: answers known.
- molecule: "CC(CO)COc1cc(Cl)c(Cl)c2[nH]cc(-c3cn[nH]c3)c12 (stereo not drawn)"
  result_unit: "µM"
  IC50: 0.0103
- molecule: "OCCC1CCn2c1c(-c1cn[nH]c1)c1ccc(Cl)c(Cl)c12 (single isomer, unassigned; isomer 2) [Example 243]"
  result_unit: "µM"
  IC50: 0.0472

For the next question, use this molecule.
(Q) // fetch recombinant human cGAS (Homo sapiens (Human)) IC50 for O=C(CO)NCc1[nH]c2c(Cl)c(Cl)ccc2c1-c1cn[nH]c1
(A) 0.0152

* * *

Documented log10(IC50) across a set of molecules
target_desc: recombinant human cGAS (Homo sapiens (Human), UniProt Q8N884)
Sequence (Q8N884 whole entry): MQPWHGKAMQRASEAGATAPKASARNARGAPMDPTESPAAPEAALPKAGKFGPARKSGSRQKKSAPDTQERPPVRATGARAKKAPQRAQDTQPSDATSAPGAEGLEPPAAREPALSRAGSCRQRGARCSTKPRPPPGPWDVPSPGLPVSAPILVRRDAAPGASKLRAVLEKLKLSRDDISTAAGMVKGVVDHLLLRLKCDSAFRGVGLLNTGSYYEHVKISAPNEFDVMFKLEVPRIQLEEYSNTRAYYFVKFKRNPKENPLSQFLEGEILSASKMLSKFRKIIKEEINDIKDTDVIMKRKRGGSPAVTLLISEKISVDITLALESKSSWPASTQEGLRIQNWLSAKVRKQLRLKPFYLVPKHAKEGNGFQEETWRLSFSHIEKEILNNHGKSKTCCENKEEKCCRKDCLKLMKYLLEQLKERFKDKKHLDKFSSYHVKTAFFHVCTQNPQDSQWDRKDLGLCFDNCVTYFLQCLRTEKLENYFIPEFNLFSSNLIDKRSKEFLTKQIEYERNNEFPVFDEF
test_description: In vitro inhibition assay of cGAS activity (cGAMP production, RapidFire mass spectrometry)
Format: biochemical
condition_parameters: 10 nM recombinant human cGAS, 60 nM 75-bp dsDNA, ATP, GTP, room temperature 3 hours, read-out: IC50 (μM), In vitro inhibition assay for Compounds 95-348
Protocol: Expression and Purification of Recombinant cGAS Protein: Insert cDNA encoding full-length of human cGAS into a modified bacterial expression vector containing an in-frame His6-tag. Induce the E. coli strain BL21(DE3) harboring the plasmid with 1 mM IPTG (Isopropyl β-D-1-thiogalactopyranoside) at 18° C. overnight. […]
Annotation: log10 of IC50, µM basis.

Field: example entries. Status: answers known.
- molecule: "N#CCOc1cc(Cl)c(Cl)c2[nH]c(CO)c(-c3cn[nH]c3)c12 [Example 340]"
  log10(IC50): -1.99
- molecule: "OCC(F)CNc1cc(Cl)c(Cl)c2[nH]cc(-c3cn[nH]c3)c12 (stereo not shown) [Example 187]"
  log10(IC50): -1.98

(Q) // fetch recombinant human cGAS (Homo sapiens (Human), UniProt Q8N884) log10(IC50) for CN(C)C(=O)CCC(=O)N1CCn2c(c(-c3cn[nH]c3)c3c(NC(=O)C(F)F)cc(Cl)c(Cl)c32)C1 [Example 275]
(A) -1.55

(Q) // fetch recombinant human cGAS (Homo sapiens (Human), UniProt Q8N884) log10(IC50) for O[C@@H]1C[C@H](Oc2cc(Cl)c(Cl)c3[nH]cc(-c4cn[nH]c4)c23)[C@@H](O)C1 (single isomer, unassigned) [Example 270]
(A) -1.68

* * *

target_desc: recombinant human cGAS (Homo sapiens (Human))
test_description: In vitro inhibition assay of cGAS activity (cGAMP production, RapidFire mass spectrometry)
Format: biochemical
condition_parameters: 10 nM recombinant human cGAS, 60 nM 75-bp dsDNA, ATP, GTP, room temperature 3 hours, read-out: IC50 (μM), In vitro inhibition assay for Compounds 95-348
Could you mark each record fulfilled if its IC50 falls strictly under 0.03 µM, and not fulfilled if it equals or exceeds it?

(Q) Hello, I'm reviewing records and need to know if IC50 of O=C1CCCN1CC(=O)N1CCn2c(c(-c3cn[nH]c3)c3ccc(Cl)c(Cl)c32)C1 is below 0.03 µM. Could you check?
(A) not fulfilled

* * *

System: cGAS activity in THP1 cells (IFNb as marker)
test_description: Cellular assay to measure cGAS activity (IFNb production in PMA-differentiated THP1 cells stimulated by RDG-Adenovirus-GFP)
Format: cell-based, human
condition_parameters: Homo sapiens, THP-1, THP1 cells, PMA differentiated, RDG-Adenovirus-GFP 1000 MOI, IFNb AlphaLISA, overnight incubation; read-out: IC50 (μM), Cellular assay for Compounds 95-348
Structures can show the parent of a compound that is named as a salt.
Documented log10(IC50) across a set of compounds
Annotation: log10 of IC50, µM basis.

Field: example entries. Status: answers known.
- compound: "CNC(=O)CCS(=O)(=O)NC1CCc2c(-c3cn[nH]c3)c3ccc(Cl)c(Cl)c3n2C1 (centres unmarked) [Example 118]"
  target_desc: "cGAS activity in THP1 cells (IFNb as marker)"
  endpoint: "log10(IC50)"
  value: 0.56
- compound: "Cn1cnc(C(=O)N2CCn3c(c(-c4cn[nH]c4)c4c(OCC#N)cc(Cl)c(Cl)c43)C2)n1 [Example 283]"
  target_desc: "cGAS activity in THP1 cells (IFNb as marker)"
  endpoint: "log10(IC50)"
  value: 0.63
- compound: "O[C@H]1C[C@@H](Oc2cc(Cl)c(Cl)c3[nH]cc(-c4cn[nH]c4)c23)C1 [Example 207]"
  target_desc: "cGAS activity in THP1 cells (IFNb as marker)"
  endpoint: "log10(IC50)"
  value: 0.21
- compound: "COCCN1CCn2c(c(-c3cn[nH]c3)c3c(NC(=O)C(F)F)cc(Cl)c(Cl)c32)C1=O [Example 252]"
  target_desc: "cGAS activity in THP1 cells (IFNb as marker)"
  endpoint: "log10(IC50)"
  value: -0.14
- compound: "O[C@@H]1C[C@H](Oc2cc(Cl)c(Cl)c3[nH]cc(-c4cn[nH]c4)c23)[C@@H](O)C1 (racemic) [Example 220]"
  target_desc: "cGAS activity in THP1 cells (IFNb as marker)"
  endpoint: "log10(IC50)"
  value: -0.25
- compound: "CNC(=O)CC(=O)NC1CCc2c(-c3cn[nH]c3)c3ccc(Cl)c(Cl)c3n2C1 (centres unmarked) [Example 141]"
  target_desc: "cGAS activity in THP1 cells (IFNb as marker)"
  endpoint: "log10(IC50)"
  value: 0.52

(Q) Data request, read-out log10(IC50), for CCNc1cc(Cl)c(Cl)c2c1c(-c1cn[nH]c1)c1n2CCN(C(C)=O)C1 [Example 255, hydrochloride]
(A) 0.32

(Q) Data request, read-out log10(IC50), for N#CCOc1cc(Cl)c(Cl)c2c1c(-c1cn[nH]c1)c1n2CCN(C(=O)CN2CCOCC2=O)C1 [Example 290]
(A) 0.84

(Q) Data request, read-out log10(IC50), for NCCn1cc(-n2cc(-c3cn[nH]c3)c3ccc(Cl)cc32)nn1 [Example 228, formic acid salt]
(A) 0.16

(Q) Data request, read-out log10(IC50), for N#CCOc1cc(Cl)c(Cl)c2c1c(-c1cn[nH]c1)c1n2CCN(C(=O)c2cnccn2)C1 [Example 286]
(A) -0.34

(Q) Data request, read-out log10(IC50), for CC(=O)N[C@H]1Cc2c(-c3cn[nH]c3)c3c(NC(=O)C(F)F)cc(Cl)c(Cl)c3n2C1 [Example 244]
(A) -0.27
